Target: T1, TIGIT (UniProt Q495A1 22-141, limits assumed)
T1 construct: also called T cell immunoreceptor with Ig and ITIM domains; hTIGIT
T1 sequence (looked up): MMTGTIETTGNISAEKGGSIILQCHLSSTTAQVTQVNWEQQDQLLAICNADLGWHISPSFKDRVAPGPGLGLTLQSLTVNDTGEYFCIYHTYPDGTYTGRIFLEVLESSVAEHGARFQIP
Assay: SPR, VHH-V5-His
Readout: Kd (nM)
Provide only the numeric value, understood in nM.

Known Kd results, listed for orientation:
1) TIGIT-31-20 (VHH-V5-His) (VHH, not shown: V5-His tag) VHH: EVQLVESGGGLVQPGGSLRLSCAASGFTFSGNWMGWFRQAPGKEREFVAGILSDGRELYADSVKGRFTISADNSKNTAYLQMNSLKPEDTAVYYCAADVWYGSTWRNWGQGTLVTVSS: 281
2) TIGIT-31-26 (VHH-V5-His) (VHH, not shown: V5-His tag) VHH: EVQLVESGGGLVQPGGSLRLSCAASGFTFDRSWMGWFRQAPGKERELVAAITSGGSTYYADSVKGRFTISADNSKNTAYLQMNSLKPEDTAVYYCAADVWYGSTWRNWGQGTLVTVSS: 158
3) TIGIT-31-32 (VHH-V5-His) (VHH, not shown: V5-His tag) VHH: EVQLVESGGGLVQPGGSLRLSCAASGFTFSTSWMGWFRQAPGKERELVAAMTSGGGTNYADSVKGRFTISADNSKNTAYLQMNSLKPEDTAVYYCAADVWYGSTWRNWGQGTLVTVSS: 102

# input for lookup
// query Retrieve Kd measured for TIGIT-31-47 (VHH-V5-His) (VHH, not shown: V5-His tag) VHH: EVQLVESGGGLVQPGGSLRLSCAASGFTFSGNWMGWFRQAPGKEREWVVGISSGGTPHYADSVKGRFTISADNSKNTAYLQMNSLKPEDTAVYYCAADVWYGSTWRNWGQGTLVTVSS and print it.
// result 186
